- method summary: soluble on expression in E. coli; label from the status in PepcDB or PDB records
reported metric: soluble on expression in E. coli

Some sequences with known soluble on expression in E. coli results, for comparison:
# entry sequence, result
records = [
    ("MNEHHQPFEEIKLINANGAEQWSARQLGKLLGYSEYRHFIPVLTRAKEACENSGHTIDDHFEEILDMVKIGSNAKRALKDIVLSRYACYLVVQNGDPAKPVIAAGQTYFAIQTRRQELADDEAFKQLREDEKRLFLRNELKEHNKQLVEAAQQAGVATATDFAIFQNHGYQGLYGGLDQKAIHQRKGLKKNQKILDHMGSTELAANLFRATQTEEKLKRDGVNSKQQANTTHFDVGRKVRQTIQELGGTMPEELPTPQVSIKQLENSVKITEKK", "soluble"),
    ("SNAMLHYVHVGNKKSPNTLLFVHGSGCNLKIFGELEKYLEDYNCILLDLKGHGESKGQCPSTVYGYIDNVANFITNSEVTKHQKNITLIGYSMGGAIVLGVALKKLPNVRKVVSLSGGARFDKLDKDFMEKIYHNQLDNNYLLECIGGIDNPLSEKYFETLEKDPDIMINDLIACKLIDLVDNLKNIDIPVKAIVAKDELLTLVEYSEIIKKEVENSELKIFETGKHFLLVVNAKGVAEEIKNFI", "soluble"),
    ("MAHHHHHHMKEARKGPCVPWQQNYARWQHTTPVNHVTVMIALDTMNKDRGAPCLVPGSHRWREGGLLPSVPYDPAKDEAQQLNTIWEITNEEESEMLMDTPPATVDMKRGEALLIHPLTLFATHGNRSLDAVRCCFIHYMGGKTYATQNGPLLPHTTQFQAGAMIQGPFYPVVFDPAMTEELAMLPGESAAQNDITEEV", "not soluble"),
    ("MGSDKIHHHHHHMTVCVWCQRPLKTSLTLAQFWRWGPVTPPDICVPCQGRLSPISGQHCPQCGRQQTTCQLCQDCQRWDQPLVNRALYCYDAEMKAYMQQYKFQGDYALQRVLQRALATALTQLTYDILVPIPIAQSTWQSRGFNQVTGWLTGQAYYQVLQVIDQDKATPQSAKNRAQRFLLTPQPFTLAPQAKDLCHGQRVLLLDDVYTTGRTLRHAATQINLTGAKAVTSLTLAR", "not soluble"),
    ("MRHNIKFKSKGTLKIRNTAQISLWKKCSDSMIADQTYLFINRVQDRRFDEESLRILELSLVAMNVKSFLEVRSRLRDFMRSESVVIFGELTGESMVAKLSVLEFFARAFALLGDMESCLAMRYEALNLRQLKSPSCLWLGVSHSEWTKFAVQSMENGFPSIAGKASENALLSLKKDSLIEPKSEDNSDILDAAEKVRRLRDSAASLTSSHSGIFIYIVSSLKFAVCNRLLTTF", "soluble"),
]

API: the following record is the query input.
Prompt: Quick one: soluble on expression in E. coli of `MSLIQLRPCPKSYTRDQDKATTPAETVRRVRERLASLDISILAETRRVDVGRLGIPVFLSVCGADARAVMPTRKQMGKGASLEQAQASALMELMERYSFFTFWRDMPGMVEATWSEARNRFGDALIPVDEILHSVHDTLSPDDAVRALDLWRWKFFPATDITHGREVWLPLDWFKKLGEFNGSSAGNTEEESILQGSCELVERHVCCLIDRTQPELPTIDPASLDDPVLLELAAAFERNGIRLVLKDFSMGMPVPTVGAIAWDPATFPERSEIVYTAGTSSSPVKAAIRAVTEVAQLAGDFCTGACYEASGLSKYESLDDIAWLVAGPVVALDTLPSVETDDIRDELAALCDGLAATGHTLYSVSTMNPDVGVNTHYNIVPGFHFRERDRNAEGHHHHHH` ?
Completion: not soluble
